test system: SK-MEL-28 melanoma; assay: NCI-60 one-dose screen, 48 h (100 = growth as untreated, 0 = no growth, -100 = all killed); conditions: 10 µM unless noted
This is part of a sample that, as a whole, favours compounds with a hit. Of some 83,000 tested, about 20% had one in any assay.
For each of the molecules below, state its growth.
Just the number in %, nothing appended.

Task item: What does the data say about its growth? Entry: Oc1ccccc1-c1nnc(CNc2ccc(Cl)cc2)o1
Reply: 32.2

Task item: What does the data say about its growth? Entry: COc1ccc(/C=C2\Oc3cc(OCCCCN4CCCC4)ccc3C2=O)cc1
Reply: 107

Task item: What does the data say about its growth? Entry: O=C(/C=C/c1cccc([N+](=O)[O-])c1)c1ccc(O)c(CN2CCN(c3cc4c(cc3F)c(=O)c(C(=O)O)cn4C3CC3)CC2)c1
Reply: 46.4

Task item: What does the data say about its growth? Entry: Cc1ccc2c(C(C[N+](=O)[O-])c3ccccc3F)c(-c3ccccc3)[nH]c2c1 (centres undefined)
Reply: 63

* * *

system: PC-3 prostate; assay: NCI-60 one-dose screen, 48 h; conditions: 10 µM unless noted
About 83,000 compounds went through this panel and 20% of them were active in at least one assay; those are over-represented in the sample as a whole. Calls of active or inactive are those of the source. The calls were made as follows: active = growth percent below 10; inactive = the rest.
# output must be one of TRUE = active, FALSE = inactive

Task item: In this assay, the call recorded for C=C(C)C1CC(O)C2(C)CCCC3C2C1CC(C)C3(C)CC/C(C)=C/C(O)C1CCC(=O)c2c(OC)cc(OC)cc21 (stereo not given) was what?
Reply: FALSE

Task item: In this assay, the call recorded for Cc1cc(N2CCCCC2)nc(NC2CCCC(Nc3ccnc4cc(Cl)ccc34)C2)n1 (stereo not given) was what?
Reply: TRUE

Task item: In this assay, the call recorded for O=C1Nc2c(ccc(Cl)c2Cl)/C1=C\c1cc(C(F)(F)F)cc(C(F)(F)F)c1 was what?
Reply: TRUE

Task item: In this assay, the call recorded for Cc1ccc2oc(=O)cc(C3c4ccc([nH]4)C(c4cc(=O)oc5ccc(C)cc45)c4ccc([nH]4)C(c4cc(=O)oc5ccc(C)cc45)c4ccc([nH]4)C(c4cc(=O)oc5ccc(C)cc45)c4ccc3[nH]4)c2c1 (stereo not given) was what?
Reply: TRUE

Task item: In this assay, the call recorded for COC(=O)[C@]12CCC(C)(C)C[C@H]1[C@H]1C(=O)C[C@@H]3[C@@]4(C)c5c([nH]c6ccccc6c5=O)C(C)(C)[C@@H]4CC[C@@]3(C)[C@]1(C)CC2 was what?
Reply: FALSE

Task item: In this assay, the call recorded for O=c1cc(CSc2nnc(SCc3cc(=O)oc4c3ccc3ccccc34)o2)c2ccc3ccccc3c2o1 was what?
Reply: FALSE

Task item: In this assay, the call recorded for CC1=C[C@H]2c3c(c(O)c(O)c4oc5c(C)cccc5c(=O)c34)[C@H](c3cc(O)c(O)c4oc5c(C)cccc5c(=O)c34)[C@H]2C(C)(C)C1 was what?
Reply: FALSE

Task item: In this assay, the call recorded for Clc1ccc2c(NCCNc3nc(N4CCOCC4)nc4ccccc34)ccnc2c1 was what?
Reply: FALSE

Task item: In this assay, the call recorded for NC(=NC1C2CC3CC(C2)CC1C3)Nc1ccc(I)cc1 (stereo not given) was what?
Reply: FALSE

Task item: In this assay, the call recorded for CC(=O)O[C@H]1CC[C@]2(C)[C@H]3CC=C4[C@@H]5CC(C)(C)CC[C@]5(C(=O)NCCNCCN)CC[C@@]4(C)[C@]3(C)CC[C@H]2C1(C)C was what?
Reply: TRUE

Task item: In this assay, the call recorded for O=c1cc(CSc2nnc(-c3ccc(F)cc3)o2)c2ccc3ccccc3c2o1 was what?
Reply: FALSE

Task item: In this assay, the call recorded for CC(C)(C)CC(C)(C)c1ccc(OCCOCC[N+](C)(C)Cc2ccccc2)cc1 was what?
Reply: TRUE

Task item: In this assay, the call recorded for COc1cc(-c2nc(C(=O)NCC(=O)NO)nn2-c2ccc(Cl)cc2)cc(OC)c1OC was what?
Reply: FALSE

Task item: In this assay, the call recorded for COc1cc(/C=C/c2cc(/C=C/c3ccc(O)c(OC)c3)n(-c3c(C)cccc3C)c(=O)n2)ccc1O was what?
Reply: TRUE

Task item: In this assay, the call recorded for COc1cccc(NC(=O)c2sc3nc(C)c(C(C)=O)cc3c2N)c1 was what?
Reply: FALSE

* * *

test system: IGROV1 ovarian; experiment: NCI-60 one-dose screen, 48 h (100 = growth as untreated, 0 = no growth, -100 = all killed); conditions: 10 µM unless noted
Compounds without any hit were thinned out: in the full panel of roughly 83,000, 20% have a hit.
MEASUREMENT_LABEL: growth (%)
Just the number in %, nothing appended.

Task item: Quick check: growth on IGROV1 ovarian, item C=C1c2nc3ccccc3n2C=C(c2ccc(Cl)cc2)N1Cc1ccc(OC)cc1 ?
Reply: 55.2

Task item: Quick check: growth on IGROV1 ovarian, item COc1cc(-c2nn(C)nc2-c2cc3ccccc3s2)cc(OC)c1OC ?
Reply: 39

Task item: Quick check: growth on IGROV1 ovarian, item Cc1nc2c3c(-c4ccccc4)c(-c4ccccc4)oc3ncn2n1 ?
Reply: 94.7

Task item: Quick check: growth on IGROV1 ovarian, item COc1cc(-c2ccc3c(c2)NC(=O)/C3=C\c2ccc[nH]2)ccc1O ?
Reply: 26.3

Task item: Quick check: growth on IGROV1 ovarian, item Cc1ccc2c(C(C[N+](=O)[O-])c3ccco3)c(-c3ccccc3)[nH]c2c1 (stereo unspecified) ?
Reply: 29

Task item: Quick check: growth on IGROV1 ovarian, item Cc1cc(N2CCOCC2)nc(NCc2cc(Nc3ccnc4cc(Cl)ccc34)ccc2F)n1 ?
Reply: -14.1

Task item: Quick check: growth on IGROV1 ovarian, item NCCNc1nc(Nc2ccc(-c3nc4ccccc4[nH]3)cc2)c2cn[nH]c2n1 ?
Reply: 97.6

Task item: Quick check: growth on IGROV1 ovarian, item Cc1cc2nc(NC(=O)CN3CCN(CCN4C(=O)c5cccc6cccc(c56)C4=O)CC3)sc2cc1C ?
Reply: 77.6

Task item: Quick check: growth on IGROV1 ovarian, item NS(=O)(=O)c1ccc(CN=C2NC(=O)S/C2=C\c2ccc(Br)cc2)cc1 ?
Reply: 96.9

Task item: Quick check: growth on IGROV1 ovarian, item CC1=C(O)C(=O)C(C(C#N)(C#N)C(C#N)C#N)C1 (stereo unspecified) ?
Reply: 102

Task item: Quick check: growth on IGROV1 ovarian, item COc1cc(CNc2oc(-c3ccccc3)c(-c3ccccc3)c2C#N)cc(CN2CCN(C)CC2)c1O ?
Reply: 71.2

* * *

system: K-562 leukemia; assay: NCI-60 one-dose screen, 48 h; details: 10 µM unless noted
This is part of a sample that, as a whole, favours compounds with a hit. Of some 83,000 tested, about 20% had one in any assay. Calls of active or inactive are those of the source. How the source made its calls: active means growth percent below 10; inactive means the rest.
# output must be one of t (active), f (inactive)

Task item: In this assay, the call recorded for COc1ccc(-c2cc(C(=O)N=Nc3c(O)[nH]c4ccc(Br)cc34)no2)cc1 was what?
Reply: f

Task item: In this assay, the call recorded for O=C1c2ccccc2C(=O)c2c1ccc1[nH]c(-c3cccs3)nc21 was what?
Reply: f

Task item: In this assay, the call recorded for COc1cccc(-c2nc3sccn3c2-c2ccnc(NCCNS(=O)(=O)c3ccc(F)cc3)c2)c1 was what?
Reply: f

Task item: In this assay, the call recorded for CCOC(=O)c1c(C)oc2ncnc(N3CCN(C(=O)COc4ccc(SC)cc4)CC3)c12 was what?
Reply: f

Task item: In this assay, the call recorded for O=C1c2cccc3cccc(c23)C(=O)N1CCCCN1CCN(CCCCOc2ccc(-c3nc4ccc(N5CCOCC5)cc4[nH]3)cc2)CC1 was what?
Reply: f

Task item: In this assay, the call recorded for Cc1cc(N2CCN(c3ccnc4cc(Cl)ccc34)CC2)nc(NC2CCCCC2)n1 was what?
Reply: t

Task item: In this assay, the call recorded for O=C(/C=C/C=C/c1ccc2c(c1)OCO2)N/N=C\c1ccc(O)cc1O was what?
Reply: f

Task item: In this assay, the call recorded for C(=C\c1nccc2c1[nH]c1ccccc12)/c1ccccc1 was what?
Reply: f

Task item: In this assay, the call recorded for Cc1cc(C)nc(SC2=C(Nc3ccc(C)c(Cl)c3)C(=O)N(Cc3ccccc3)C2=O)n1 was what?
Reply: f

Task item: In this assay, the call recorded for Cc1cc(C)nc(SC2=C(Nc3cccc(Cl)c3C)C(=O)N(Cc3ccccc3)C2=O)n1 was what?
Reply: f

Task item: In this assay, the call recorded for CCOC(=O)c1csc(NC(=O)COc2cccc(/C=C3\CSc4ccccc4C3=O)c2)n1 was what?
Reply: t

Task item: In this assay, the call recorded for COc1ccc(/C=C/C(=O)c2ccc(O)c(CN3CCN(c4cc5c(cc4F)c(=O)c(C(=O)O)cn5C4CC4)CC3)c2)cc1 was what?
Reply: f
